Assay: yeast display, Sf9 membrane polyspecificity reagent, FACS + sequencing; frameworks hold sequencing errors
assay readout: polyreactivity (PSR sort gate)

seq text: QVQLVESGGGLVQAGGSLRLSCAASGYTFYYYAMGWYRQAPGKERELVAAISWSGGSTYYADSVKGRVTISRDNAKNTVYLQMNSLKPEDTAVYYCAAGVDLYYDLYDYEYWGQGTQVTVSS
reported: low polyreactivity

seq text: QVQLVESGGGLVQAGGSLRLICAASGFTFYRYAMGWYRPAPGKERELVAAITNIAGSTYYADSVKGRFTISRDNAKNTLYLQMNSLKPEDTAVYYCNANRLRRYDYWGQGTQVTVSS
reported: high polyreactivity

seq text: QVQLVESGGGLVQAGGSIRLSCAPSGRTFRYYAMGWYRQAPGKERELVAAISRSGGSTYYADSVKGRFTISRDNAKNTVYLQMNSLKPEVTAVYYCADRYYVPWFGPSKYTPYDYWGQGIQVTVSS
reported: high polyreactivity

seq text: QFQLVESGGGLFQAGGILRLSCAASGRNFLYNAMGWDRQAPGKERELVAAISSRGARTYYADSVKGRFTISRDNAKNTVYFQMNSLKPEDTAVYYCATDSYRYDGIQYLYEYYYWGQGTQVTVSS
reported: high polyreactivity

seq text: QVQLVESGGGLVQAGGSLRLSCAASGNIFYAYDMGWYRQAPGKERELVAAITNGDSTDYADSVKGRFTISRDNAKNTVYLQMNSLKPEDTAVYYCATDIHSVHNNRDKHDYDYWGQGTQVTVSS
reported: low polyreactivity

Query string: Which polyreactivity (PSR sort gate) reading was recorded for the sequence QVQLVESGGGLVQAGGSLRLSCAASGLTFYYYVMGWYRQAPGKERELVAAISYSGGRTYYADSVKGRFTISRDNAKNTVSLQMNSLKPEDTAVYYCAAQSRYGGKFYYWGQGTQVTVSS ?
Result string: high polyreactivity

Query string: Record: QVQLVESGGGLVQAGGSLRLSCAASGIIFRWYAMGWYRQAPGKERELVAGITSTTGTTYYADSVKGRFTISRDNAKNTVYLQMNSLKPEDSAVYYCAADYYWYTTAGVVDSFEYWGQGTQVTVSS
Result string: low polyreactivity

Query string: Record: QVQLVESGGGLVQAGGSLRLSCAASGSIFYYNAMGWYRQAPGKERELVATITSGGSTYYADSVKGRFTISRDNAKNTVYLQMNSLKPEDTAVYYCAPRSQSIRYTYIRSYYWGQGTQVTVSS
Result string: low polyreactivity

Query string: Record: QVQLVESGGGLFKAGGSLRLSCAASGSTLPGYAMGWYRQAPGKERELVAAITGSGGRTYYADSVKGRFTISRDNAKYTVYLQMNSLKPEDTAVYYCGRGQRVYRSQGDYWGQGSQVTVSS
Result string: high polyreactivity

Query string: Record: QVQLVESGGGLVQAGGSLRLSCAASGSIFRNNTMGWYRQAPGKERELVAAISGRGTRTSYADSVKGRFTISRDNAKNTVYLQMNSLKPEDTAVYYCAAVYYWRPGWYVRFDYWGQGTQVTVSS
Result string: low polyreactivity

Query string: Record: KVQLVESGAGLVQAGGSLRLSCAASGITFGWYAMGWYRQAPGKERELVATINSGGSTNYADSVKGRFTISRDNAQNSVYLQMNSLKAEDTAVYYCAADGLIRWYDYWGQGTQVTVSS
Result string: low polyreactivity

Query string: Record: QVQHVESGGGLVQAGGSLRLSCAASGFTFATYAMGWYRQAQGKERELVAAISRGTSTYYADSVKGRFTISRVNAKNTVYLQMNSLIPDDTAVYYCAATSSFRYDYWGKGTQVTVSS
Result string: low polyreactivity

====

Test: yeast display, Sf9 membrane polyspecificity reagent, FACS + sequencing; frameworks hold sequencing errors

seq text: QVQLVESGGGLVQAGGSLRLSCAASGNIFVGNDMGWYRQAPGKERELVAAISSGDTTSYADSVKGRFTISRDNAKNTVYLQMNSLKPEDTAVYYCNTDAPYLLWFTNRYDYWGQGTQVTVSS
polyreactivity (PSR sort gate): low polyreactivity

seq text: QVQLVESGGGLVQAGGSLRLSCAASGSTFDYYAMGWYRQAPGKERELVAAISRTGGRTYYADSVKGRFTISRDNAKNTVYLQMNSLKPEDTAVYYCATRNGRQYSVSYRYYYWGQGTQVTVSS
polyreactivity (PSR sort gate): low polyreactivity

seq text: QVQLVESGGGLVQAGGSLRLSCAASGSTFDVNAMGWYRQAPGKERELVAVITSGGSTNYADSVKGRFTISRDNAKNTVYLQMNRLKPEDTAVYYCAKDSRTLYDYWGQGTQVTVSS
polyreactivity (PSR sort gate): low polyreactivity

====

Test: yeast display, Sf9 membrane polyspecificity reagent, FACS + sequencing; frameworks hold sequencing errors
assay readout: polyreactivity (PSR sort gate)

Solved entries:
seq text: QVQLVESGGGLVQAGGSLRLSCAASGRTFPVNAMGWYRQAPGKERELVASITYSGGSTYYADSVKGRFTISRDNAKNTVYLQMNSLKPEDTAVYYCAADWYRSPYDYWGQGTQVTVSS
reported: low polyreactivity

seq text: QVQLVESGGGLVQAGGRLRLSCAASGFTYPEYAMGWYRQAPGKEMELVAAIDSGDGSTYYADSVKGRFTISRDNAKNTVYLQMISLKPEDTAVYYCATDRYPHSATPGDYWGQGTQVTVSS
reported: low polyreactivity

seq text: QVQLVESGGGLVQAGGSLRLSCAASGSTFYTNAMGWDRPAPGKEREVVAAISWSGSSTYADSVKGRFTISRDNAKNTVYLQMNSLKPEDTAVYYCAADWFKLRTDYYWGQGTQVTVSS
reported: low polyreactivity

seq text: QVQLVESGGGLVQAGGSLRLTCAASGSTFSYYAMGWYRQPPRKERELVAVITWSGASTYYADSVKGRFTISRDNAKNTVYLQMNSLKPEDTAVYYCAADKYLSYDYWGQGTQVSVSS
reported: low polyreactivity

seq text: QVQLLESGAGLVQAGGSLRLSSAASGSIFNLNAMAWYRQAPGKERELVAGIRWSGGRTYYADSVKGRFTISRDNAKNTVYLQMNSLKPVDNEVYYCTAVGYLSWWYDYEYWGQGTQVTVST
reported: high polyreactivity

seq text: QVQLVESGGGLVQAGGSIRLSCAASGFIFGGYAMGWYRQAPGKERELVAAITRSGGSTYYADSVKGRFTISRDNAKTTVYFQMNSLKPEDTAVYYCAAVPYRKHSYPFRLNYWGQGTQVTVSS
reported: high polyreactivity

Here's the next entry for you.
Query string: Which polyreactivity (PSR sort gate) reading was recorded for the sequence QVQLVESGGGVVQAGGSLRLSCAASGSTFYPYAMGWYRPAPVKERELVASISSRGGTTYYADSEKGRFTISRDNAKNTVYLQRNSLKPEDTAVYYCAATYKHLNPLGVFSGGYYYWGQGTQVTVSS ?
Result string: high polyreactivity

====

Assay: yeast display, Sf9 membrane polyspecificity reagent, FACS + sequencing; frameworks hold sequencing errors

seq text: QVQLVESGGGLVQAGGSLRLSCAASGRIFWANAMGWYRQAPGKERELVAAISKSGDSTYYADSVKGRFTISRDTAKNTVYLEMSWLKPEDTAVYSCAADEYASRFSFKYDYWGQGTQVTVSS
polyreactivity (PSR sort gate): high polyreactivity
--
seq text: QVQLVESGGGLVQAGGSLRLSCAASARTFRQYAMGWYRQSPGKERELVAAIRTNGGRTYYADSVKGRFTISRDNAKNTVYLQMNSLKPEDTAVYYCAVRPRPGYYYWGQGTQVTVSS
polyreactivity (PSR sort gate): high polyreactivity
--
seq text: QVQLVESGGGLVQAGGSLRLSCAASGFIFWGNAMGWYRQAPGKERELVAAINYSGGRTYYSDSVKGRFTISRDNAKNTVYLQMNSLKPEDTAVYYCAATGPVNRASYDYWGQGTQVTVSS
polyreactivity (PSR sort gate): high polyreactivity

====

Assay: yeast display, Sf9 membrane polyspecificity reagent, FACS + sequencing; frameworks hold sequencing errors
assay readout: polyreactivity (PSR sort gate)

seq text: QVQLVESGGGLVQAGGSLRLSCAASGITFWKYAMGWYRQAPGKERELVAAISKSGGSTYYADSVKGRFTISRDNAKNTVYLQMNSLKPEDTAVYYCAAYPQFWYWDYNYWGQGTQVTVSS
assay readout: polyreactivity (PSR sort gate)
reported: high polyreactivity
//
seq text: QVQLVESGGGLVQAGGSLRLSCAASGRIFTYYAMRWYRQAPGKERELVAGITGSGASTYYADSVKGRFTISRDNAKNTVYLQMNSLKPEDTAVYYCNAPYVIRPFRGRYDYWGQGTLVTVSS
assay readout: polyreactivity (PSR sort gate)
reported: high polyreactivity
//
seq text: QVQLVESGGGLVQAGGSLRLICAASGSIFFYNAMGWYRQAPGKERELVAAITTRGGSTYYADSVKGRFTISRDNAKNTVYLQMNSLKPEDTAVYYCARSSRGKLDYWGQGTQVTVSS
assay readout: polyreactivity (PSR sort gate)
reported: low polyreactivity
//
seq text: QVQLQESVGGLVQAGGSLRLSCASSGSISNSAAMGWYRQAPGKERELVVSIGHGASSNYADSVKGRFTISRDNAKNTVYLQMNSLKPEDTAVYYCAAYPGFLDGFFYWGQSTQVTVSS
assay readout: polyreactivity (PSR sort gate)
reported: high polyreactivity
//
seq text: QVQLVESGGGLVQAGGSLRLSCAASGSTFKKYAIGWYRQAPGKERELVAAITWTGGSTYYADSVKGRFTISRDNAKNTVYLQMNSLKPEDTAVYYCAAYKTYAVKYYWGQGTQVTVSS
assay readout: polyreactivity (PSR sort gate)
reported: high polyreactivity
//
seq text: QVHLVESGGGLVQAGGSLRLSCAASGSTFRLYALGWYRQAPGKERELVAVISRSGGRTYADSVKGRFTISRDNAKNTVYLQMNSLKPVDTAVYYCAKARHKSPTYTHDSWGQGTQVTVSS
assay readout: polyreactivity (PSR sort gate)
reported: high polyreactivity

Query string: Which polyreactivity (PSR sort gate) reading was recorded for the sequence QVQLVESGGGLVQAGGSLRLSCAASGFTFKFNAMGWYRQAPGKERELVAAISYSGGSTYYADSVKGRFTISRDIAKNTVYVQMNSLKPEDTAVYYCAARAYWYGASYYYWGQGTQVTVSS ?
Result string: high polyreactivity

Query string: Record: QVQLVESGGGLVQAGGSLRVSCAASGRIFWYNDMGWYRQAPGKERELVAAITARGTRTHYADSVKGRFTISRDNAKKTVYLQMNSLKPEDTAVYYCAKGWYTVVWDAPVFSERGEYWGQGTQVTVSS
Result string: low polyreactivity

Query string: Record: QVQLVDSGGGLVQAGVSLRLSCAASGFTFVFYAMGWYRQAPGKERELVAAISGRGGSTYYADSVKGRFTISRDNAKNTVYLQMNSLKPEDTAVYYCNALYVYRSVANFDYWGQGTQVTVSS
Result string: high polyreactivity

Query string: Record: QVQLVESGGGLVQAGGSLRLSCAASGFTFKYNAMGWYRQAPGKERELVASISSGSTNYADSVKGRFTISRDNAKNTVYLQMNSLKPEDTAVYYCAASVSRGKRFRYGYVFKLDYWGQGTQVTVSS
Result string: low polyreactivity
